test: qHTS assay to test for compound auto fluorescence at 460 nm (blue) in HepG2 cells (AID 720687); conditions: autofluorescence 405/460 nm, 1 h; series mostly up to 46 µM
The source made the active and inactive calls. Calls follow the shape of the dose curve; as a rule, active = well fitted curve in the direction sought with a large enough effect in the repeat runs; inconclusive = weak or mixed curves; inactive = flat fitted curve, though single readings scatter.
measuredQuantity: fluorescence, % of fluorescent control

>>> df
                                    compound                        measuredquantity  observedresult
 0  CCN(Cc1ccncc1)C(=O)C(CO)c1ccccc1 (configuration not stated)  fluorescence, % of fluorescent control        inactive
 1     O=C(CCCN1CCN(c2ccccn2)CC1)c1ccc(F)cc1  fluorescence, % of fluorescent control        inactive
 2                       CCCCCCCCS(=O)(=O)Cl  fluorescence, % of fluorescent control        inactive
 3  CCCCC(CC)COC(=O)c1ccccc1O (configuration not stated)  fluorescence, % of fluorescent control        inactive
 4  CC(C(=O)O)c1ccc(CC2CCCC2=O)cc1 (configuration not stated)  fluorescence, % of fluorescent control        inactive
 5  C[C@H](NC(CCc1ccccc1)C(=O)O)C(=O)N1CCC[C@H]1C(=O)O (some centres not stated)  fluorescence, % of fluorescent control        inactive
 6                NS(=O)(=O)c1ccc(C(=O)O)cc1  fluorescence, % of fluorescent control        inactive
 7                         CCc1ccc(O)c(OC)c1  fluorescence, % of fluorescent control        inactive
 8  FC1(F)C(F)(F)C(F)(F)C2(F)C(F)(F)C(F)(F)C(F)(F)C(F)(F)C2(F)C1(F)F (configuration not stated)  fluorescence, % of fluorescent control        inactive
 9                          CC/C=C\CC/C=C/CO  fluorescence, % of fluorescent control        inactive
10                    CC(=O)CC(C)(C)C1CCCCC1  fluorescence, % of fluorescent control        inactive
11  CO[C@]12C[C@@H](COC(=O)c3cncc(Br)c3)CN(C)[C@@H]1Cc1cn(C)c3cccc2c13  fluorescence, % of fluorescent control        inactive
12            CCCCOCCOCCOCc1cc2c(cc1CCC)OCO2  fluorescence, % of fluorescent control        inactive
13  NC(CSCC(=O)O)C(=O)O (configuration not stated)  fluorescence, % of fluorescent control        inactive
14      CN(C)CCCSc1ccccc1NC(=O)/C=C/c1ccccc1  fluorescence, % of fluorescent control        inactive
15            CCOC(=O)c1c(C)n(C)c2ccc(O)cc12  fluorescence, % of fluorescent control        inactive
16                           CCCCC/C=C\CCC=O  fluorescence, % of fluorescent control        inactive
17  OC1CCCCC1c1ccccc1 (configuration not stated)  fluorescence, % of fluorescent control        inactive
18  COC(=O)C1=C(C)NC(C)=C(C(=O)OC)C1c1ccccc1[N+](=O)[O-]  fluorescence, % of fluorescent control        inactive
19                          CCCCCOC(=O)CCCCC  fluorescence, % of fluorescent control        inactive
20    Cc1nc2c([nH]1)c(=O)n(C)c(=O)n2Cc1ccco1  fluorescence, % of fluorescent control        inactive
21             CC(C)(c1ccc(O)cc1)c1ccc(O)cc1  fluorescence, % of fluorescent control        inactive
22                                  O=S(O)CO  fluorescence, % of fluorescent control        inactive
23  CC(=O)N(CC(O)CO)c1c(I)c(C(=O)NCCO)c(I)c(C(=O)NCC(O)CO)c1I (configuration not stated)  fluorescence, % of fluorescent control        inactive
24  COc1ccccc1OCC(O)CN1CCN(CC(=O)Nc2c(C)cccc2C)CC1 (configuration not stated)  fluorescence, % of fluorescent control        inactive
25     N=C(N)c1ccc(OCCCOc2ccc(C(=N)N)cc2)cc1  fluorescence, % of fluorescent control        inactive
26                           CCCCNC(=O)NCCCC  fluorescence, % of fluorescent control        inactive
